Test: protein stability index of a GFP-peptide fusion (yeast GPS) (PSI 1-4); higher = more stable; sorted into four equal gates, so the index is relative within each strain
Settings: doa10∆
Param threshold (3) applies to protein stability index; output YES when value >= threshold, NO when value < threshold.

seqText	category
TKENLEVSGENVVEADL [QCR2]	YES
SYYGIVCLMQISTRERD [RRP6]	NO
ELDSKTRKILEILNECH [MED4]	YES
HGSIIILGMLSLADNEI [YCS4]	NO

Check the entry YILSLVSIKDSTGCVVG [YMR129W/POM152] : does protein stability index equal or exceed 3?
NO

Check the entry ILDAICFVLGIASMSTV [SMC2] : does protein stability index equal or exceed 3?
NO

Check the entry SRSSVCVKAIEALFQSR [YCG1] : does protein stability index equal or exceed 3?
YES

Check the entry EPLAFYLEESFTNLGII [RGR1] : does protein stability index equal or exceed 3?
NO

Check the entry SMTAVPKPLKFLRPTYP [RPN1] : does protein stability index equal or exceed 3?
NO
